protocol: MicroPET/CT imaging and biodistribution, HepG2 tumor model
Assay type: in vivo, nude mice
test_context: both sexes, BALB/c nude, mouse, heart, iv, 5.55 MBq, total radioactivity; HepG2 (GPC3+) tumor model, 120 min, PET; read-out: Heart uptake
measured_quantity: tissue uptake at 2 h (%ID/g)

compound="CC(C)C[C@H](NC(=O)[C@H](CCCNC(=N)N)NC(=S)Nc1ccc(CC2CN(CC(=O)O)CCN(CC(=O)O)CCN2CC(=O)O)cc1)C(=O)N[C@@H](CC(N)=O)C(=O)N[C@H](C(=O)NCC(=O)NCC(=O)N[C@H](C(=O)N[C@@H](Cc1ccc(O)cc1)C(=O)N[C@@H](Cc1ccccc1)C(=O)N[C@@H](CC(C)C)C(=O)N[C@H](C(=O)N[C@H](C(=O)N[C@@H](CCCNC(=N)N)C(=O)N[C@@H](CCC(N)=O)C(=O)O)[C@@H](C)O)[C@@H](C)O)[C@@H](C)O)C(C)C (single isomer, unassigned) [Al[^18F]F-GP2076]" experimental_result=0.36

---

protocol: MicroPET/CT imaging and biodistribution, HepG2 tumor model
Type: in vivo, nude mice
test_context: both sexes, BALB/c nude, mouse, muscle, iv, 5.55 MBq, total radioactivity; HepG2 (GPC3+) tumor model, 60 min, PET; read-out: Muscle uptake
measured_quantity: tissue uptake at 1 h (%ID/g)

compound="CC(C)C[C@H](NC(=O)[C@H](CCCNC(=N)N)NC(=S)Nc1ccc(CC2CN(CC(=O)O)CCN(CC(=O)O)CCN2CC(=O)O)cc1)C(=O)N[C@@H](CC(N)=O)C(=O)N[C@H](C(=O)NCC(=O)NCC(=O)N[C@H](C(=O)N[C@@H](Cc1ccc(O)cc1)C(=O)N[C@@H](Cc1ccccc1)C(=O)N[C@@H](CC(C)C)C(=O)N[C@H](C(=O)N[C@H](C(=O)N[C@@H](CCCNC(=N)N)C(=O)N[C@@H](CCC(N)=O)C(=O)O)[C@@H](C)O)[C@@H](C)O)[C@@H](C)O)C(C)C (single isomer, unassigned) [Al[^18F]F-GP2076]" measured_quantity="tissue uptake at 1 h" experimental_result=0.44

---

protocol: MicroPET/CT imaging and biodistribution, HepG2 tumor model
Assay type: in vivo, nude mice
test_context: both sexes, BALB/c nude, mouse, HepG2 tumor / kidneys, iv, 5.55 MBq, total radioactivity; HepG2 (GPC3+) tumor bearing mice, 60 min; read-out: Tumor-to-kidneys (T/K) uptake ratio
measured_quantity: tissue to tissue ratio at 1 h

molecule="CC(C)C[C@H](NC(=O)[C@H](CCCNC(=N)N)NC(=S)Nc1ccc(CC2CN(CC(=O)O)CCN(CC(=O)O)CCN2CC(=O)O)cc1)C(=O)N[C@@H](CC(N)=O)C(=O)N[C@H](C(=O)NCC(=O)NCC(=O)N[C@H](C(=O)N[C@@H](Cc1ccc(O)cc1)C(=O)N[C@@H](Cc1ccccc1)C(=O)N[C@@H](CC(C)C)C(=O)N[C@H](C(=O)N[C@H](C(=O)N[C@@H](CCCNC(=N)N)C(=O)N[C@@H](CCC(N)=O)C(=O)O)[C@@H](C)O)[C@@H](C)O)[C@@H](C)O)C(C)C (single isomer, unassigned) [Al[^18F]F-GP2076]" measured_quantity="tissue to tissue ratio at 1 h" experimental_result=0.31

---

protocol: MicroPET/CT imaging and biodistribution, HepG2 tumor model
Format: in vivo, nude mice
test_context: both sexes, BALB/c nude, mouse, lung, iv, 5.55 MBq, total radioactivity; HepG2 (GPC3+) tumor model, 30 min, PET; read-out: Lung uptake
measured_quantity: tissue uptake at 0.5 h (%ID/g)

molecule="CC(C)C[C@H](NC(=O)[C@H](CCCNC(=N)N)NC(=S)Nc1ccc(CC2CN(CC(=O)O)CCN(CC(=O)O)CCN2CC(=O)O)cc1)C(=O)N[C@@H](CC(N)=O)C(=O)N[C@H](C(=O)NCC(=O)NCC(=O)N[C@H](C(=O)N[C@@H](Cc1ccc(O)cc1)C(=O)N[C@@H](Cc1ccccc1)C(=O)N[C@@H](CC(C)C)C(=O)N[C@H](C(=O)N[C@H](C(=O)N[C@@H](CCCNC(=N)N)C(=O)N[C@@H](CCC(N)=O)C(=O)O)[C@@H](C)O)[C@@H](C)O)[C@@H](C)O)C(C)C (single isomer, unassigned) [Al[^18F]F-GP2076]" unit_string=%ID/g experimental_result=1.57

---

protocol: Ex vivo biodistribution in HepG2 tumor bearing nude mice
test_context: both sexes, BALB/c nude, mouse, kidneys, iv, 1.85 MBq, total radioactivity; 1 h post-injection, gamma counting; read-out: Kidneys uptake, ex vivo biodistribution
measured_quantity: tissue uptake at 1 h (%ID/g)

compound="CC(C)C[C@H](NC(=O)[C@H](CCCNC(=N)N)NC(=S)Nc1ccc(CC2CN(CC(=O)O)CCN(CC(=O)O)CCN2CC(=O)O)cc1)C(=O)N[C@@H](CC(N)=O)C(=O)N[C@H](C(=O)NCC(=O)NCC(=O)N[C@H](C(=O)N[C@@H](Cc1ccc(O)cc1)C(=O)N[C@@H](Cc1ccccc1)C(=O)N[C@@H](CC(C)C)C(=O)N[C@H](C(=O)N[C@H](C(=O)N[C@@H](CCCNC(=N)N)C(=O)N[C@@H](CCC(N)=O)C(=O)O)[C@@H](C)O)[C@@H](C)O)[C@@H](C)O)C(C)C (single isomer, unassigned) [Al[^18F]F-GP2076]" experimental_result=6.37

---

protocol: Ex vivo biodistribution in HepG2 tumor bearing nude mice
test_context: both sexes, BALB/c nude, mouse, liver, iv, 1.85 MBq, total radioactivity; 1 h post-injection, gamma counting; read-out: Liver uptake, ex vivo biodistribution
measured_quantity: tissue uptake at 1 h (%ID/g)

compound="CC(C)C[C@H](NC(=O)[C@H](CCCNC(=N)N)NC(=S)Nc1ccc(CC2CN(CC(=O)O)CCN(CC(=O)O)CCN2CC(=O)O)cc1)C(=O)N[C@@H](CC(N)=O)C(=O)N[C@H](C(=O)NCC(=O)NCC(=O)N[C@H](C(=O)N[C@@H](Cc1ccc(O)cc1)C(=O)N[C@@H](Cc1ccccc1)C(=O)N[C@@H](CC(C)C)C(=O)N[C@H](C(=O)N[C@H](C(=O)N[C@@H](CCCNC(=N)N)C(=O)N[C@@H](CCC(N)=O)C(=O)O)[C@@H](C)O)[C@@H](C)O)[C@@H](C)O)C(C)C (single isomer, unassigned) [Al[^18F]F-GP2076]" measured_quantity="tissue uptake at 1 h" unit_string=%ID/g experimental_result=2.3

---

protocol: MicroPET/CT imaging and biodistribution, HepG2 tumor model
Format: in vivo, nude mice
test_context: both sexes, BALB/c nude, mouse, HepG2 tumor / liver, iv, 5.55 MBq, total radioactivity; HepG2 (GPC3+) tumor bearing mice, 30 min; read-out: Tumor-to-liver (T/L) uptake ratio
measured_quantity: tissue to tissue ratio at 0.5 h

compound="CC(C)C[C@H](NC(=O)[C@H](CCCNC(=N)N)NC(=S)Nc1ccc(CC2CN(CC(=O)O)CCN(CC(=O)O)CCN2CC(=O)O)cc1)C(=O)N[C@@H](CC(N)=O)C(=O)N[C@H](C(=O)NCC(=O)NCC(=O)N[C@H](C(=O)N[C@@H](Cc1ccc(O)cc1)C(=O)N[C@@H](Cc1ccccc1)C(=O)N[C@@H](CC(C)C)C(=O)N[C@H](C(=O)N[C@H](C(=O)N[C@@H](CCCNC(=N)N)C(=O)N[C@@H](CCC(N)=O)C(=O)O)[C@@H](C)O)[C@@H](C)O)[C@@H](C)O)C(C)C (single isomer, unassigned) [Al[^18F]F-GP2076]" measured_quantity="tissue to tissue ratio at 0.5 h" experimental_result=0.43

---

protocol: MicroPET/CT imaging and biodistribution, HepG2 tumor model
Format: in vivo, nude mice
test_context: both sexes, BALB/c nude, mouse, brain, iv, 5.55 MBq, total radioactivity; HepG2 (GPC3+) tumor model, 60 min, PET; read-out: Brain uptake
measured_quantity: tissue uptake at 1 h (%ID/g)

compound="CC(C)C[C@H](NC(=O)[C@H](CCCNC(=N)N)NC(=S)Nc1ccc(CC2CN(CC(=O)O)CCN(CC(=O)O)CCN2CC(=O)O)cc1)C(=O)N[C@@H](CC(N)=O)C(=O)N[C@H](C(=O)NCC(=O)NCC(=O)N[C@H](C(=O)N[C@@H](Cc1ccc(O)cc1)C(=O)N[C@@H](Cc1ccccc1)C(=O)N[C@@H](CC(C)C)C(=O)N[C@H](C(=O)N[C@H](C(=O)N[C@@H](CCCNC(=N)N)C(=O)N[C@@H](CCC(N)=O)C(=O)O)[C@@H](C)O)[C@@H](C)O)[C@@H](C)O)C(C)C (single isomer, unassigned) [Al[^18F]F-GP2076]" measured_quantity="tissue uptake at 1 h" unit_string=%ID/g experimental_result=0.18

---

protocol: Ex vivo biodistribution in HepG2 tumor bearing nude mice
test_context: both sexes, BALB/c nude, mouse, brain, iv, 1.85 MBq, total radioactivity; 1 h post-injection, gamma counting; read-out: Brain uptake, ex vivo biodistribution
measured_quantity: tissue uptake at 1 h

compound="CC(C)C[C@H](NC(=O)[C@H](CCCNC(=N)N)NC(=S)Nc1ccc(CC2CN(CC(=O)O)CCN(CC(=O)O)CCN2CC(=O)O)cc1)C(=O)N[C@@H](CC(N)=O)C(=O)N[C@H](C(=O)NCC(=O)NCC(=O)N[C@H](C(=O)N[C@@H](Cc1ccc(O)cc1)C(=O)N[C@@H](Cc1ccccc1)C(=O)N[C@@H](CC(C)C)C(=O)N[C@H](C(=O)N[C@H](C(=O)N[C@@H](CCCNC(=N)N)C(=O)N[C@@H](CCC(N)=O)C(=O)O)[C@@H](C)O)[C@@H](C)O)[C@@H](C)O)C(C)C (single isomer, unassigned) [Al[^18F]F-GP2076]" measured_quantity="tissue uptake at 1 h" experimental_result="0.1 %ID/g"
